Origin of measurements: PubChem BioAssay AID1963960

test system: MDA-MB-468 spheroids with HUVEC/MSC, viability; assay: Anticancer human tumor MDA-MB-468 cell line growth inhibition [PI3K]; details: second compound 0.316 µM; first compound 0.000316 µM; stronger effect = lower value;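 also: spheroids exposed to agents for seven days before readout; 100% = DMSO vehicle control viability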
Field: viability, T/C. Provide a value for each of the compounds that follow.
One number for each entry, in %.

In the examples that follow, each entry is paired with its recorded viability, T/C.
> print(dat)
                                   compound    assay.metric  value.unit  assay.value
1  CC(=O)c1c(C)c2cnc(Nc3ccc(N4CCNCC4)cn3)nc2n(C2CCCC2)c1=O + CC(Nc1ccc2c(c1)OCCn1cc(N3C(=O)OCC3C(F)F)nc1-2)C(N)=O  viability, T/C           %         89.5
2  Cn1ncnc1[C@H]1c2n[nH]c(=O)c3cc(F)cc(c23)N[C@@H]1c1ccc(F)cc1 + CC(Nc1ncnc2nc[nH]c12)c1cc2cccc(Cl)c2c(=O)n1-c1ccccc1  viability, T/C           %         73.2
3  CC(C)n1nc(-c2ccc3oc(N)nc3c2)c2c(N)ncnc21 + COc1c(OCCCN2CCOCC2)ccc2c3n(c(=NC(=O)c4cnc(N)nc4)nc12)CCN3  viability, T/C           %         28.2
4  Cn1ncnc1[C@H]1c2n[nH]c(=O)c3cc(F)cc(c23)N[C@@H]1c1ccc(F)cc1 + Cc1nc(NC(=O)N2CCCC2C(N)=O)sc1-c1ccnc(C(C)(C)C(F)(F)F)c1  viability, T/C           %           88
5  CC(C)n1nc(-c2ccc3oc(N)nc3c2)c2c(N)ncnc21 + Cc1nc(NC(=O)N2CCCC2C(N)=O)sc1-c1ccnc(C(C)(C)C(F)(F)F)c1  viability, T/C           %         99.5

Could you now consider this next compound?
Asked: Query: viability, T/C; subject: CC(C)n1nc(-c2ccc3oc(N)nc3c2)c2c(N)ncnc21 + CC(Nc1ccc2c(c1)OCCn1cc(N3C(=O)OCC3C(F)F)nc1-2)C(N)=O
Given back: 87.2

---

test system: MDA-MB-468 spheroids with HUVEC/MSC, viability; experiment: Anticancer human tumor MDA-MB-468 cell line growth inhibition [PI3K]; settings: second compound 0.0316 µM; first compound 0.0316 µM; stronger effect = lower value;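 also: spheroids exposed to agents for seven days before readout; 100% = DMSO vehicle control viability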
Field: viability, T/C. Provide a value for each of the compounds that follow.
Numbers only, in %.

In the examples that follow, each entry is paired with its recorded viability, T/C.
COMPOUND	viability, T/C / %
C#Cc1c(F)ccc2cc(O)cc(-c3ncc4c(N5CC6CCC(C5)N6)nc(OCC56CCCN5CC(F)C6)nc4c3F)c12 (stereo unspecified) + COc1c(OCCCN2CCOCC2)ccc2c3n(c(=NC(=O)c4cnc(N)nc4)nc12)CCN3	76.5
CC(C)n1nc(-c2ccc3oc(N)nc3c2)c2c(N)ncnc21 + CC(Nc1ncnc2nc[nH]c12)c1cc2cccc(Cl)c2c(=O)n1-c1ccccc1	60
CC(C)n1nc(-c2ccc3oc(N)nc3c2)c2c(N)ncnc21 + COc1c(OCCCN2CCOCC2)ccc2c3n(c(=NC(=O)c4cnc(N)nc4)nc12)CCN3	51.2
CC(Cn1ccc(-c2ccc(C#N)c(Cl)c2)n1)NC(=O)c1cc(C(C)O)[nH]n1 (stereo unspecified) + Cc1nc(NC(=O)N2CCCC2C(N)=O)sc1-c1ccnc(C(C)(C)C(F)(F)F)c1	82.4
CCN1CCN(Cc2ccc(Nc3ncc(F)c(-c4cc(F)c5nc(C)n(C(C)C)c5c4)n3)nc2)CC1 + COc1c(OCCCN2CCOCC2)ccc2c3n(c(=NC(=O)c4cnc(N)nc4)nc12)CCN3	77.5

Could you now consider this next compound?
Asked: Query: viability, T/C; subject: Cn1ncc(Cl)c1-c1cc(C(=O)NC(CN)Cc2cccc(F)c2)sc1Cl (stereo unspecified) + COc1c(OCCCN2CCOCC2)ccc2c3n(c(=NC(=O)c4cnc(N)nc4)nc12)CCN3
Given back: 66.5
